// reported inhibition per item
species on record: Ovis aries; assay: Inhibition of sheep brain tubulin polymerization at 2.5 mM after 15 mins by turbidimetry
The answer is to be given in %; state only the numeric part.

COc1cc(O)c2c(=O)c(OC)c(-c3ccc(OC)c(O)c3)oc2c1 [AYANIN]: 0
COc1ccc(-c2oc3c(Br)c(OC)c(Br)c(O)c3c(=O)c2OC)cc1O: 36
COc1ccc(-c2oc3c(N(C)C)c(OC)c(OC)c(O)c3c(=O)c2OC)cc1O: 0

Moving on to another molecule below.
[Q] Reported inhibition for `COc1ccc(-c2oc3c(OC)c(OC)cc(O)c3c(=O)c2OC)cc1O` : what is it?
[A] 0
